These data points were gathered from ChEMBL document CHEMBL3217678.

test: Half life in 100 fold molar excess of deuterated water in DMSO at 37 degC by [1H]-NMR analysis; assay type: physicochemical
readout-kind: half-life (h)
Give bare numbers, in h.

{"columns": ["sample-smiles", "result"],
 "data": [
  ["COc1cccc(-c2nsc(=O)o2)c1", 20]
]}

I would be grateful if you could share the reported half-life for CC(C)C[C@H](NC(=O)[C@H](Cc1ccccc1)NC(=O)c1cnccn1)c1nsc(=O)o1 .
156
